The following compounds are listed with their measured pEC50 values.
Molecular target: acetylcholine muscarinic M1 receptor (Homo sapiens, UniProt P11229)
Construct: b382 calls them CHOK1/hM1
Sequence (P11229 1-460): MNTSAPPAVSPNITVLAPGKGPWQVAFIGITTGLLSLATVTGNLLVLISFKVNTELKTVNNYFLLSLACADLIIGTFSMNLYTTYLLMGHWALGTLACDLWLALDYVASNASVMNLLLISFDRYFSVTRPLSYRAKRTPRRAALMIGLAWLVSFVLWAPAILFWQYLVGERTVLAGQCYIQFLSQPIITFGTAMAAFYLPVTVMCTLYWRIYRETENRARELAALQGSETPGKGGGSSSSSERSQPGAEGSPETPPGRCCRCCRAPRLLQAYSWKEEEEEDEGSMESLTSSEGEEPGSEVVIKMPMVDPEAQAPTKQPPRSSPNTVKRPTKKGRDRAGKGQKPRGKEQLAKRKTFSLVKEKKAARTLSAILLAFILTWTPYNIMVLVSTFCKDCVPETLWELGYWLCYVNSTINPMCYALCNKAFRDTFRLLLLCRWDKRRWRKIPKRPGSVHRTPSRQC
Test: muscarinic FLIPR intracellular calcium assay, potentiation of EC20 acetylcholine in CHOnfat/hM1 cells
Settings: inflection point calculated from FLIPR values, 4 min preincubation, then EC20 acetylcholine (3 nM final), read-out: IP Value
pEC50: −log10 of the molar value.

{"Compound": "COC(C)(C)c1ccc(Cc2cc3c(=O)n([C@H]4CCOC[C@@H]4O)cnc3c3ccccc23)cn1", "pEC50": 7.35}
{"Compound": "CCOc1ccc(Cc2cc3c(=O)n([C@H]4CCOC[C@@H]4O)cnc3c3ccccc23)cn1", "pEC50": 7.57}
{"Compound": "CS(=O)(=O)c1ccc(Cc2cc3c(=O)n([C@H]4CCOC[C@@H]4O)cnc3c3ccccc23)cn1", "pEC50": 7.28}
{"Compound": "O=c1c2cc(Cc3ccc(CF)nc3)c3ccccc3c2ncn1[C@H]1CCOC[C@@H]1O", "pEC50": 7.64}
{"Compound": "O=c1c2cc(Cc3ccc(-c4cscn4)nc3)c3ccccc3c2ncn1[C@H]1CCOC[C@@H]1O", "pEC50": 8.24}
{"Compound": "O=c1c2cc(Cc3ccc(CO)nc3)c3ccccc3c2ncn1[C@H]1CCOC[C@@H]1O", "pEC50": 7.55}
{"Compound": "CCn1ccc2c(Cc3cc4c(=O)n([C@H]5CCOC[C@@H]5O)cnc4c4ccccc34)ccnc21", "pEC50": 7.49}
{"Compound": "COc1ccc(Cc2cc3c(=O)n([C@H]4CCOC[C@@H]4O)cnc3c3ccccc23)cn1", "pEC50": 7.77}
{"Compound": "O=c1c2cc(Cc3ccc(Cl)nc3)c3ccccc3c2ncn1[C@H]1CCNC[C@@H]1O (racemic)", "pEC50": 7.27}
